# Tested System: human KV 1.5 (IKur) (Homo sapiens, UniProt P22460)
# Construct: expressed in transfected cells
# Sequence (P22460 whole entry): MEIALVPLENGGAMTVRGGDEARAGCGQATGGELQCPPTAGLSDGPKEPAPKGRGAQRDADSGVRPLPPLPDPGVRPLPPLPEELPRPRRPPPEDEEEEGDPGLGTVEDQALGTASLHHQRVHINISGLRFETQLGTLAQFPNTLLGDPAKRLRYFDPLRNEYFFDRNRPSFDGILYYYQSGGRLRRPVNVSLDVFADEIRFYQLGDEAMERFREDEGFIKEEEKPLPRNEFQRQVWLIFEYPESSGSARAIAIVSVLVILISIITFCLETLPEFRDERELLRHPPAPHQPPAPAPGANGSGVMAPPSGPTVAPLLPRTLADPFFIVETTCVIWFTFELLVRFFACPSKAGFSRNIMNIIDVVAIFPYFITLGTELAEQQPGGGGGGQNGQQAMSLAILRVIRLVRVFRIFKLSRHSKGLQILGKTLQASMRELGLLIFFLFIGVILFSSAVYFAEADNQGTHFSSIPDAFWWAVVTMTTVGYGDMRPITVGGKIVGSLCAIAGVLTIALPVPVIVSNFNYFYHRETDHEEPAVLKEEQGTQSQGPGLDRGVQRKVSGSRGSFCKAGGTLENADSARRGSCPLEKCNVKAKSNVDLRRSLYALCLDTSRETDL
# Assay: block of IKur current in patch clamped L-929 cells expressing human Kv1.5
# Format: cell-based
# Conditions Used: L929, 0.3 μM; patch clamped mammalian L-929 cells stably expressing human Kv1.5; read-out: KV1_5% Inh L929 @0.3 μM
Measured Parameter: inhibition at 0.3 µM (%)
Dear colleague, please return just the value in %, with no unit written.

Compound: c1ccc(CNc2nc(C3CCOCC3)nn3ccc(-c4ccccc4)c23)cc1
inhibition at 0.3 µM (%): 95.4

Problem: Consider the compound `COc1ncc(-c2nc(NCc3ccccc3)c3c(-c4ccccc4)ccn3n2)cc1S(N)(=O)=O` and give its measured inhibition at 0.3 µM.
Result: 95.8

Problem: # inhibition at 0.3 µM lookup, item `CCOC(=O)CS(=O)(=O)Nc1cccc(-c2nc(NCc3ccccn3)c3c(-c4ccccc4)ccn3n2)c1`
Result: 97.6

Problem: I would be grateful if you could share the reported inhibition at 0.3 µM for O=C(NCC(O)CO)c1cncc(-c2nc(NCc3ccccc3)c3c(-c4ccccc4)ccn3n2)c1 (centres unmarked) .
Result: 95.7

Problem: Which value of inhibition at 0.3 µM has been reported for `NS(=O)(=O)c1cncc(-c2nc(NCc3ccccc3)c3c(C4=CCOCC4)ccn3n2)c1` in the records?
Result: 93.8

Problem: inhibition at 0.3 µM lookup needed for `NS(=O)(=O)c1cncc(-c2nc(NCc3cnccn3)c3c(-c4ccccc4)ccn3n2)n1` , thanks.
Result: 89.5

Problem: Return reported inhibition at 0.3 µM; argument: `NS(=O)(=O)c1cncc(-c2nc(NCc3ncccn3)c3c(-c4ccccc4)ccn3n2)c1`
Result: 97.3

Problem: // returns reported inhibition at 0.3 µM for input `NS(=O)(=O)c1cncc(-c2nc(NCc3ccccn3)c3c(-c4ccc(N5CCOCC5)cc4)ccn3n2)c1`
Result: 16

Problem: Given the compound `NC(=O)c1ccc(-c2nc(NCc3ccccn3)c3c(-c4ccccc4)ccn3n2)cc1` , what is its reported inhibition at 0.3 µM?
Result: 99

Problem: Find the recorded inhibition at 0.3 µM belonging to `NS(=O)(=O)c1cncc(-c2nc(NCc3cnccn3)c3c(-c4ccccc4)ccn3n2)c1` and report it.
Result: 94.7

Problem: Quick one: inhibition at 0.3 µM for `CS(=O)(=O)NC1(c2nc(NCc3ccccn3)c3c(-c4ccccc4)ccn3n2)CC1` ?
Result: 98.6

Problem: Could you share which inhibition at 0.3 µM value was measured for `NS(=O)(=O)c1cncc(-c2nc(NCc3cocn3)c3c(-c4ccccc4)ccn3n2)c1` ?
Result: 97.2

Problem: Sample `NS(=O)(=O)c1cncc(-c2nc(NCc3ncccc3F)c3c(-c4ccccc4F)ccn3n2)c1` — what was its inhibition at 0.3 µM?
Result: 98.7

Problem: // query inhibition at 0.3 µM value for entry `NS(=O)(=O)c1cncc(-c2nc(NCc3ccncc3)c3c(-c4ccccc4)ccn3n2)c1`
Result: 90

Problem: Consider the compound shown here: `NS(=O)(=O)c1cncc(-c2nc(NCc3ccccn3)c3c(-c4ccccc4)ccn3n2)n1` What is its recorded inhibition at 0.3 µM?
Result: 99.3

Problem: Please give the measured inhibition at 0.3 µM for this compound: `CS(=O)(=O)Nc1ccccc1CNc1nc(-c2cncc(S(N)(=O)=O)c2)nn2ccc(-c3ccccc3)c12`
Result: 90.1

Problem: Please give the measured inhibition at 0.3 µM for this compound: `NC(=O)c1ccccc1NC(=O)c1nc(NCc2ccccc2)c2c(-c3ccccc3)ccn2n1`
Result: 35.2

Problem: State the recorded inhibition at 0.3 µM for this entry: `NC(=O)c1cncc(-c2nc(NCc3ccccc3)c3c(-c4ccccc4)ccn3n2)c1`
Result: 95.9

Problem: Given the compound `CC(=O)Nc1cncc(-c2nc(NCc3ccccn3)c3c(-c4ccccc4)ccn3n2)c1` , what is its reported inhibition at 0.3 µM?
Result: 94.8
